Kindly supply the reported EC50 values for the records listed here.
Test system: THP-1 viability, CellTiter-Glo luminescence, 72 h
Test: THP-1 cell cytotoxicity, dose response, cytotoxicity control for Salmonella PhoP regulon inhibitors, S. typhimurium screen hits (AID 2253)

Worked examples, 5 molecules total:
Cc1cc(SCC(=O)N/N=C/c2ccc(O)c(O)c2O)c(C)cc1Br; 2.76 µM
COc1ccc(/C=N/Nc2cc(C)nc3c(C)cccc23)cc1; 7.25 µM
COc1ccccc1N1CCN(c2ccc(-c3ccccc3)nn2)CC1; 2.61 µM
N=c1n(Cc2ccc(Cl)cc2)c2ccccc2n1CC(O)c1ccco1 (stereo not given); 11.8 µM
c1ccc(-c2nnc(-c3ccccn3)nc2NC2CCCCC2)cc1; 1.37 µM

# batch size: 2; output EC50 per entry
1. CCN(CC)S(=O)(=O)c1cccc(C(=O)N/N=C/c2ccc(O)c(O)c2O)c1
2. NC(N)=N/N=C/c1ccc(OCc2ccc(Cl)cc2)cc1

Output line:
["6.68 µM", "2.91 µM"]

# batch size: 4; output EC50 per entry
1. CC1(C)CC(=O)C2=C(C1)N(c1ccc(F)cc1)C(N)=C(C#N)C2c1cccs1 (stereo not given)
2. Cc1cc(C(C)(C)CC(C)(C)C)ccc1OCCOCC[N+](C)(C)Cc1ccccc1
3. S=C(NN=C1C2CC3CC(C2)CC1C3)Nc1ccccc1
4. O=C1c2ccccc2C(=O)c2[nH]c(=O)[nH]c21

Output line:
1. 35.6 µM
2. 1.61 µM
3. 30.4 µM
4. 4.83 µM

The origin of these recorded values is PubChem BioAssay AID2253.
